Values were extracted from paper PMC5777247.

- subject of test: T1, SA2 (STAG2), full length (human, UniProt Q8N3U4 1-1231)
- T1 sequence: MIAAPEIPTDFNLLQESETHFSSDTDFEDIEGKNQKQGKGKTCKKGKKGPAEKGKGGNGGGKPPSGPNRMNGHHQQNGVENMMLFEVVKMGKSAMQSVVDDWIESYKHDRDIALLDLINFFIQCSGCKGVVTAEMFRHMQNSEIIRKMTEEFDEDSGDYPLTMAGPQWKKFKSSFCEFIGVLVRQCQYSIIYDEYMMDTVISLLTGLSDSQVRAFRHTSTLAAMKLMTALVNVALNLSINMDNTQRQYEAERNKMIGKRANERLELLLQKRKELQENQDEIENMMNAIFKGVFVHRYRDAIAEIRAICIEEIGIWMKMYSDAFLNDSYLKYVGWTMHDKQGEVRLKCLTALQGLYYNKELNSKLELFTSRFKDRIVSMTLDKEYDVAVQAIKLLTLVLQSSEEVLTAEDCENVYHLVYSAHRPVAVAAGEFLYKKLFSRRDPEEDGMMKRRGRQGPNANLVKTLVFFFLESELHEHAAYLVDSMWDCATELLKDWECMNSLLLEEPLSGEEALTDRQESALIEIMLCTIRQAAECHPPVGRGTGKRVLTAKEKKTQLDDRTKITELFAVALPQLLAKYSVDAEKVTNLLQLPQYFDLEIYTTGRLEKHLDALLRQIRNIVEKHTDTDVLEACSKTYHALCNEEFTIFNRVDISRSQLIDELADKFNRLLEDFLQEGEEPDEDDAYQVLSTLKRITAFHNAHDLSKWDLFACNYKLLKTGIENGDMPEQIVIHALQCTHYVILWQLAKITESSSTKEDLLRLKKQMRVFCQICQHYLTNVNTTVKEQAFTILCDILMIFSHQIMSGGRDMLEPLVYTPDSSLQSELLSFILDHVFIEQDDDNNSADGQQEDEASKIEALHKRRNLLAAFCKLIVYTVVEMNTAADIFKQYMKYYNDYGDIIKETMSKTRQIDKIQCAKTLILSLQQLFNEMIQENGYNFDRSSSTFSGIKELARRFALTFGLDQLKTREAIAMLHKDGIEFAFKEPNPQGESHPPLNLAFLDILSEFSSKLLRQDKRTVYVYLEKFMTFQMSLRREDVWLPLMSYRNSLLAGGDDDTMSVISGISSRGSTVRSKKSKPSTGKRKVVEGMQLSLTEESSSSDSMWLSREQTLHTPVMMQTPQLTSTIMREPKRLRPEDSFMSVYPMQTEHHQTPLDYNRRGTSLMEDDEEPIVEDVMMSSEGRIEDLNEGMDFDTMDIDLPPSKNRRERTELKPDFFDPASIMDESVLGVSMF
- experimental details: fluorescence anisotropy; Anisotropy: 20 mM Hepes pH 7.5, 0.1 mM MgCl2, 0.5 mM DTT, 100 mM KCl, 1 nM DNA; AFM: 20 mM Hepes pH 7.5, 100 mM KCl, 0.1 mM MgCl2, room temperature, 20 min
- details: protein: recombinant; tags: 6xHis; label: Alexa 488
measurement label: pKd
Friendly reminder that pKd comes from taking -log10 of the concentration in mol/L.

input: For the binder shown here, ss66 (Alexa ss66) (ssDNA) DNA: CTGGATCCGTACAGTGTAAGGGTGAGTGGTTGGGTGTGTGGGTGTTGATGTAGAACAAGAATTCGA , give the reported pKd.
output: 7.39
